- assayNotes: log P by HPLC on reversed-phase column (EEC directive 79/831 Annex V.A8)
- Assay type: physicochemical
- measurementSetup: HPLC on reversed-phase column (footnote a)
metric: log p
Please give only the number in your answer, with no unit.

Return log p (reported value) for this compound: CCOCC(=O)c1c([O-])n(Cc2ccc(Cl)nc2)c2cc(C(F)(F)F)cc[n+]12 [Example I-1-079]
2.17

* * *

- assayNotes: log P by HPLC on reversed-phase column (EEC directive 79/831 Annex V.A8)
- Type: physicochemical
- measurementSetup: HPLC on reversed-phase column
Entries and their log p a)
When you answer, write just the number.

Some solved cases for reference:
CC(c1ccc(Cl)nc1)n1c([O-])c(C(=O)NC2CC2)[n+]2ccccc12 (stereo not drawn) : 1.75
COC(=O)c1c([O-])n(C(C)c2cnc(Cl)s2)c2c(C)ccc[n+]12 (stereo not drawn) : 1.68
Cc1ccc[n+]2c(C(=O)NC3CC3)c([O-])n(C(C)c3ccc(Cl)nc3)c12 (racemic) [Example I-1-259] : 1.96
Cc1ccc[n+]2c(C(=O)COC(C)C)c([O-])n(Cc3cnc(Cl)s3)c12 : 1.97
COc1ccc[n+]2c(C(=O)NC3CC3)c([O-])n(Cc3cnc(Cl)s3)c12 : 1.96

Provide only the value of recorded log p a) for COC(=O)c1c([O-])n(C(C)c2cnc(Cl)s2)c2cccc[n+]12 (stereo not drawn)
1.45

Look up and report measured log p a) for this entry: CC(c1ccc(Cl)nc1)n1c([O-])c(C(=O)Nc2c(F)cccc2F)[n+]2ccccc12 (stereo not drawn)
2.46

* * *

In this section, each of the compounds is paired with its reported log p.
- assayNotes: log P by HPLC on reversed-phase column (EEC directive 79/831 Annex V.A8)
- Type: physicochemical
- measurementSetup: HPLC on reversed-phase column (footnote a)
Simply state the number, no unit and no words.

COC(=O)COCC(=O)c1c([O-])n(Cc2cnc(Cl)s2)c2cccc[n+]12 [Example I-1-075] : 1.41
COC(=O)c1c([O-])n(Cc2ccc(Cl)nc2)c2c(C)ccc[n+]12 [Example I-1-183] : 1.66
Cc1cccc2n(Cc3cnc(Cl)s3)c([O-])c(C(=O)CCl)[n+]12 [Example I-1-080] : 1.81
O=C(NC1CC1)c1c([O-])n(Cc2ccc(Cl)nc2)c2c(F)cc(F)c[n+]12 [Example I-1-197] : 1.99
C[S+]([O-])CC(=O)c1c([O-])n(Cc2ccc(Cl)nc2)c2cccc[n+]12 (centres unmarked) [Example I-1-022] : 0.91
O=C(NCC1CC1)c1c([O-])n(Cc2cnc(Cl)s2)c2cccc[n+]12 [Example I-1-143] : 1.99
CSc1ccn(CC(=O)c2c([O-])n(Cc3ccc(Cl)nc3)c3cccc[n+]23)n1 [Example I-1-054] : 1.35
Cc1ccc[n+]2c(C(=O)NC3CC3)c([O-])n(Cc3ccc(Cl)nc3)c12 [Example I-1-181] : 1.75

Give reported log p value for O=C(Nc1ccc(Cl)cc1)c1c([O-])n(Cc2cnc(Cl)s2)c2cccc[n+]12 [Example I-1-150]
3.39

Provide only the value of recorded log p for CNC(=O)c1ccn(CC(=O)c2c([O-])n(Cc3cnc(Cl)s3)c3cccc[n+]23)n1 [Example I-1-048]
1.27

Give a short answer stating reported log p for O=C(Cn1ccc(C(F)(F)F)n1)c1c([O-])n(Cc2cnc(Cl)s2)c2cccc[n+]12 [Example I-1-057] .
2.44

Quote log p reported for O=C(CNCc1ccccc1)c1c([O-])n(Cc2cnc(Cl)s2)c2cccc[n+]12 [Example I-1-053] please.
1

Identify measured log p corresponding to O=C(CCl)c1c([O-])n(Cc2cnc(Cl)c(Cl)c2)c2cccc[n+]12 [Example I-1-168]
2.11

* * *

- assayNotes: log P by HPLC on reversed-phase column (EEC directive 79/831 Annex V.A8)
- Format: physicochemical
- measurementSetup: HPLC on reversed-phase column (footnote a)
// reported log p for each item listed
Kindly provide the number alone.

Consider the following illustrative entries.
CSc1ccn(CC(=O)c2c([O-])n(Cc3cnc(Cl)s3)c3cccc[n+]23)n1 : 1.94
Cc1ccn(CC(=O)c2c([O-])n(Cc3cnc(Cl)s3)c3cccc[n+]23)n1 : 1.63
N#Cc1cnn(CC(=O)c2c([O-])n(Cc3ccc(Cl)nc3)c3cccc[n+]23)c1 : 1.55

State its log p: O=C(Cn1cccn1)c1c([O-])n(Cc2ccc(Cl)nc2)c2cc(C(F)(F)F)cc[n+]12
2.08

Please report the measured log p for COCC(=O)c1c([O-])n(C(C)c2ccc(Cl)nc2)c2cccc[n+]12 (centres unmarked)
1.35

Quote log p reported for CCCOCC(=O)c1c([O-])n(Cc2cnc(Cl)s2)c2cccc[n+]12 please.
1.92

Give reported log p value for COC(=O)c1c([O-])n(Cc2ccc(Cl)nc2)c2cc(C(F)(F)F)cc[n+]12
1.93

Quote log p reported for N#Cc1cc[n+]2c(C(=O)CCl)c([O-])n(Cc3ccc(Cl)nc3)c2c1 please.
1.83

Identify log p associated with the molecule CC(C)[S+]([O-])CC(=O)c1c([O-])n(Cc2cnc(Cl)s2)c2cccc[n+]12 (centres unmarked)
1.32

Answer with the recorded log p for the molecule listed here: CSCC(=O)c1c([O-])n(Cc2ccc(Cl)nc2)c2cccc[n+]12
1.62

Check the records and state log p for O=C(Cn1ccc(Cl)n1)c1c([O-])n(Cc2cnc(Cl)s2)c2cccc[n+]12
2.03

Complete the entry with log p for CCC(=O)N(CC)CC(=O)c1c([O-])n(Cc2ccc(Cl)nc2)c2cccc[n+]12
1.64

* * *

- assayNotes: log P by HPLC on reversed-phase column (EEC directive 79/831 Annex V.A8)
- Format: physicochemical
- measurementSetup: HPLC on reversed-phase column
metric: log p a)
No unit in the answer, only the number.

Provide only the value of recorded log p a) for O=C(Nc1ccc(F)cc1F)c1c([O-])n(Cc2cnc(Cl)s2)c2cccc[n+]12
3.13

Give the reported log p a) for this molecule. O=C(Nc1ncccc1Br)c1c([O-])n(Cc2cnc(Cl)s2)c2cccc[n+]12
1.58

Provide one value: measured log p a) of Cn1ncc(Br)c1NC(=O)c1c([O-])n(Cc2cnc(Cl)s2)c2cccc[n+]12
1.99

Please report the measured log p a) for COc1ccc(NC(=O)c2c([O-])n(C(C)c3ccc(Cl)nc3)c3cccc[n+]23)cc1 (centres unmarked)
2.66

State its log p a): O=C(Nc1c(Cl)cccc1Cl)c1c([O-])n(Cc2cnc(Cl)s2)c2cccc[n+]12
2.8

* * *

Listed here: items and their measured log p.
- assayNotes: log P by HPLC on reversed-phase column (EEC directive 79/831 Annex V.A8)
- Format: physicochemical
- measurementSetup: HPLC on reversed-phase column (footnote a)
Just the number, please, no unit after it.

COCC(=O)c1c([O-])n(Cc2cnc(Cl)c(Cl)c2)c2cccc[n+]12 [Example I-1-179] : 1.66
O=C(CO)c1c([O-])n(Cc2cnc(Cl)s2)c2cccc[n+]12 [Example I-1-089] : 1.14
COC(=O)c1c([O-])n(Cc2ccc(Cl)nc2)c2ccc(F)c[n+]12 [Example I-1-155] : 1.43
O=C(COCc1ccccc1)c1c([O-])n(Cc2cnc(Cl)s2)c2cccc[n+]12 [Example I-1-041] : 2.35

Give the reported value of log p for this record: O=C(Cn1ccnn1)c1c([O-])n(Cc2cnc(Cl)s2)c2cccc[n+]12 [Example I-1-064]
1.18

Quick one: give measured log p for Cc1ccc[n+]2c(C(=O)CCl)c([O-])n(Cc3ccc(Cl)nc3)c12 [Example I-1-159]
1.78

Supply log p value. Item: O=C(NC1CCC1)c1c([O-])n(Cc2cnc(Cl)s2)c2cccc[n+]12 [Example I-1-135]
2.11

* * *

- assayNotes: log P by HPLC on reversed-phase column (EEC directive 79/831 Annex V.A8)
- Assay type: physicochemical
- measurementSetup: HPLC on reversed-phase column (footnote a)
metric: log p
Answer with a number only.

Worked cases, answers included:
COc1cnn(CC(=O)c2c([O-])n(Cc3cnc(Cl)s3)c3cccc[n+]23)c1 : 1.58
O=C(NC1CC1)c1c([O-])n(Cc2ccc(Cl)nc2)c2c(F)ccc[n+]12 : 1.82
O=C(COc1ccccc1Cl)c1c([O-])n(Cc2cnc(Cl)s2)c2cccc[n+]12 : 2.77
O=C(Cn1cccn1)c1c([O-])n(Cc2ccc(Cl)nc2)c2c(F)ccc[n+]12 : 1.55

Read the next record carefully.
Note down log p recorded for Cc1ccc2n(Cc3ccc(Cl)nc3)c([O-])c(C(=O)CCl)[n+]2c1
1.87

Where do these numbers come from? They come from patent US20180282323A1.
